Quick reference for inhibition among some molecules
# target under test: Vasoactive intestinal polypeptide receptor 2 (Homo sapiens) (UniProt P41587)
# Sequence (whole entry): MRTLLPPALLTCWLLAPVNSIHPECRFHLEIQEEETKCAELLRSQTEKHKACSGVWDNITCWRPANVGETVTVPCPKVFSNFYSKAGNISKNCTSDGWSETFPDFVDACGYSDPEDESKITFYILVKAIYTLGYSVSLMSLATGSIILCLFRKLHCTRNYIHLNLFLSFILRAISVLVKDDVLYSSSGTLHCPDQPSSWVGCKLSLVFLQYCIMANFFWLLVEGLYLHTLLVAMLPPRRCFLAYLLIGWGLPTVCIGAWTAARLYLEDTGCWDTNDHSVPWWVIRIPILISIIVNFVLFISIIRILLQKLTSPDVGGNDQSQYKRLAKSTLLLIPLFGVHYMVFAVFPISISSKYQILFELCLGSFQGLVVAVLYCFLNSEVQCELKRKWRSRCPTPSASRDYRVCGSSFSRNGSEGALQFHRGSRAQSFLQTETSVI
# protocol description: Antagonist activity at recombinant human N-terminal signal peptide/FLAG epitope-tagged Rluc8-fused VIPR2 expressed in HEK293 cells assessed as inhibition of VIP-induced human mVenus-beta-arrestin2 binding at 0.5 uM preincubated for 5 mins with luciferin, coelenterazine H followed by VIP addition measured after 5 mins by BRET assay relative to control
# Assay type: cell-based

# example entries with known answers
Cc1ccc(S(=O)(=O)NC[C@@H](O)C[C@@H](Cc2ccccc2)C(=O)N[C@H]2c3ccccc3C[C@H]2O)c(C)c1 :: 2.8 to 27.6%
CC1CCC(NC(=O)[C@H](Cc2ccccc2)C[C@H](O)CNS(=O)(=O)c2ccc([N+](=O)[O-])cc2)CC1 (stereo not given in full) :: -1.2 to 13.4%

Item: O=C(NC[C@@H](O)C[C@@H](Cc1ccccc1)C(=O)N[C@H]1c2ccccc2C[C@H]1O)c1ccco1 Test system: Vasoactive intestinal polypeptide receptor 2 (Homo sapiens) (UniProt P41587) Read-out: inhibition Value: ?
26.2 to 30.3%

Hello, I am looking for reported inhibition with Vasoactive intestinal polypeptide receptor 2 (Homo sapiens) (UniProt P41587) for O=C(NC[C@@H](O)C[C@@H](Cc1ccccc1)C(=O)N[C@H]1c2ccccc2C[C@H]1O)c1ccccn1 . Could you help?
6.1 to 12.9%

Find the measured inhibition: item O=C(N[C@H]1c2ccccc2C[C@H]1O)[C@H](Cc1ccccc1)C[C@H](O)CNS(=O)(=O)c1ccccc1C(F)(F)F , target or system Vasoactive intestinal polypeptide receptor 2 (Homo sapiens) (UniProt P41587).
10.7 to 22.9%

Find inhibition (Vasoactive intestinal polypeptide receptor 2 (Homo sapiens) (UniProt P41587)) for the entry CC(=O)Nc1ccc(S(=O)(=O)NC[C@H](C[C@@H](Cc2ccccc2)C(=O)N[C@H]2c3ccccc3C[C@H]2OC(C)=O)OC(C)=O)cc1
0.5 to 1.95%

Lookup: inhibition / Vasoactive intestinal polypeptide receptor 2 (Homo sapiens) (UniProt P41587) / CCCCCNc1ccc(S(=O)(=O)NC[C@@H](O)C[C@@H](Cc2ccccc2)C(=O)N[C@H]2c3ccccc3C[C@H]2O)cc1
2.8 to 15.2%

Entry O=C(NC[C@@H](O)C[C@@H](Cc1ccccc1)C(=O)N[C@H]1c2ccccc2C[C@H]1O)C1CCCCCC1 , system Vasoactive intestinal polypeptide receptor 2 (Homo sapiens) (UniProt P41587): what inhibition was measured?
13.8 to 24.4%

Item O=C(N[C@H]1c2ccccc2C[C@H]1O)[C@H](Cc1ccccc1)C[C@H](O)CNS(=O)(=O)c1ccc([N+](=O)[O-])cc1 with Vasoactive intestinal polypeptide receptor 2 (Homo sapiens) (UniProt P41587) - inhibition?
2.6 to 84.5%

Notebook: pull reported inhibition for Vasoactive intestinal polypeptide receptor 2 (Homo sapiens) (UniProt P41587), entry O=C(CCCCBr)NC[C@@H](O)C[C@@H](Cc1ccccc1)C(=O)N[C@H]1c2ccccc2C[C@H]1O
-0.6 to 1.7%

Notebook: pull reported inhibition for Vasoactive intestinal polypeptide receptor 2 (Homo sapiens) (UniProt P41587), entry CC(C)Nc1ccc(S(=O)(=O)NC[C@@H](O)C[C@@H](Cc2ccccc2)C(=O)N[C@H]2c3ccccc3C[C@H]2O)cc1
8.1 to 16.2%

Recall the recorded inhibition for O=C(NC[C@@H](O)C[C@@H](Cc1ccccc1)C(=O)N[C@H]1c2ccccc2C[C@H]1O)c1cccc(Br)c1 with Vasoactive intestinal polypeptide receptor 2 (Homo sapiens) (UniProt P41587) and state it.
-3.8 to 12.8%

Form field - read-out: inhibition; system: Vasoactive intestinal polypeptide receptor 2 (Homo sapiens) (UniProt P41587); submitted item: O=C(NCCc1cccc(Cl)c1)[C@H](Cc1ccccc1)C[C@H](O)CNS(=O)(=O)c1ccc([N+](=O)[O-])cc1
-6.7 to -0.4%

Query for Vasoactive intestinal polypeptide receptor 2 (Homo sapiens) (UniProt P41587): what inhibition does the record show for O=C(NCc1ccccc1)c1ccc(S(=O)(=O)NC[C@@H](O)C[C@@H](Cc2ccccc2)C(=O)N[C@H]2c3ccccc3C[C@H]2O)cc1 ?
4.8 to 41.4%

Checklist item: inhibition tested on Vasoactive intestinal polypeptide receptor 2 (Homo sapiens) (UniProt P41587), entry CC(=O)Nc1ccc(S(=O)(=O)NC[C@H](C[C@@H](Cc2ccccc2)C(=O)N[C@H]2c3ccccc3C[C@H]2O)OC(C)=O)cc1 , value?
-9.8 to 6.75%

---

# target under test: Vasoactive intestinal polypeptide receptor 2 (Homo sapiens) (UniProt P41587)
# protocol description: Antagonist activity at recombinant human N-terminal signal peptide/FLAG epitope-tagged VIPR2 expressed in HEK293 cells co-expressing CAMYEL assessed as inhibition of VIP-induced cAMP accumulation at 0.5 uM preincubated for 5 mins with luciferin, coelenterazine H followed by VIP addition measured after 5 mins by BRET assay relative to control
# Assay type: functional, cell-based
measurement kind: inhibition (%)

Below: 2 molecules and their reported inhibition.
NC[C@@H](O)C[C@@H](Cc1ccccc1)C(=O)N[C@H]1c2ccccc2C[C@H]1O :: 11.8
O=C(NC[C@@H](O)C[C@@H](Cc1ccccc1)C(=O)N[C@H]1c2ccccc2C[C@H]1O)C(Cl)Cl :: 18.4

1. CC(C)C(=O)Nc1ccc(S(=O)(=O)NC[C@@H](O)C[C@@H](Cc2ccccc2)C(=O)N[C@H]2c3ccccc3C[C@H]2O)cc1
2. O=C(NC[C@@H](O)C[C@@H](Cc1ccccc1)C(=O)N[C@H]1c2ccccc2C[C@H]1O)c1cccc(CCl)c1
So which one has the bigger inhibition here, 1 or 2 ? Answer by quoting the chosen item's label.
1
(1: 1%, 2: 0.5%)

---

# target under test: Vasoactive intestinal polypeptide receptor 2 (Homo sapiens)
# Sequence (whole entry): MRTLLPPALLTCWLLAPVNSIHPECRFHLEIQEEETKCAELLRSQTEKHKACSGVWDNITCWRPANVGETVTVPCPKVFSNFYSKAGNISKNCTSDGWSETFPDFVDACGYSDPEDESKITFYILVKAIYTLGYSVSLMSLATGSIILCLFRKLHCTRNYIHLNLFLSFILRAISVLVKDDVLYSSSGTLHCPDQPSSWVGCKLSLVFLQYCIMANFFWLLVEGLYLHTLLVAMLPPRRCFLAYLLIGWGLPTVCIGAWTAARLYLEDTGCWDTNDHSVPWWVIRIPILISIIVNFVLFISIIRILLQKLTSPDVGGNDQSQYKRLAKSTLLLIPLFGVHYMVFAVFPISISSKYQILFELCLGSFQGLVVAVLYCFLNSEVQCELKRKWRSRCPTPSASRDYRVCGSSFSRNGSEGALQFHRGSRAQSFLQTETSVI
# protocol description: Antagonist activity at recombinant human N-terminal signal peptide/FLAG epitope-tagged Rluc8-fused VIPR2 expressed in HEK293 cells assessed as inhibition of VIP-induced human mVenus-beta-arrestin2 binding at 5 uM preincubated for 5 mins with luciferin, coelenterazine H followed by VIP addition measured after 5 mins by BRET assay relative to control
# Assay type: cell-based
measurement kind: inhibition (%)

Check out these entries, answers already filled in.
O=C(NC1Cc2ccccc2C1)[C@H](Cc1ccccc1)C[C@H](O)CNS(=O)(=O)c1ccc([N+](=O)[O-])cc1 :: 9.8
COc1ccc(S(=O)(=O)NC[C@@H](O)C[C@@H](Cc2ccccc2)C(=O)N[C@H]2c3ccccc3C[C@H]2O)cc1 :: 89.4
O=C(NC[C@@H](O)C[C@@H](Cc1ccccc1)C(=O)N[C@H]1c2ccccc2C[C@H]1O)c1ccc([N+](=O)[O-])cc1 :: 16.4
CCNC(=O)[C@@H](Cc1ccccc1)C[C@H](O)CNS(=O)(=O)c1ccc([N+](=O)[O-])cc1 :: -7.6
O=C(NCc1ccc(F)cc1F)[C@H](Cc1ccccc1)C[C@H](O)CNS(=O)(=O)c1ccc([N+](=O)[O-])cc1 :: 30.8
Cc1ccc([N+](=O)[O-])cc1S(=O)(=O)NC[C@@H](O)C[C@@H](Cc1ccccc1)C(=O)N[C@H]1c2ccccc2C[C@H]1O :: -0.6
O=C([C@H](Cc1ccccc1)C[C@H](O)CNS(=O)(=O)c1ccc([N+](=O)[O-])cc1)N1CCOCC1 :: -1.2
O=C(NCCc1cccc(Cl)c1)[C@@H](Cc1ccccc1)C[C@H](O)CNS(=O)(=O)c1ccc([N+](=O)[O-])cc1 :: 14.7
Cc1ccc(S(=O)(=O)NC[C@@H](O)C[C@@H](Cc2ccccc2)C(=O)N[C@H]2c3ccccc3C[C@H]2O)c(C)c1 :: 31.8
CNC(=O)[C@H](Cc1ccccc1)C[C@H](O)CNS(=O)(=O)c1ccc([N+](=O)[O-])cc1 :: 3.2

P. O=C([C@@H](Cc1ccccc1)C[C@H](O)CNS(=O)(=O)c1ccc([N+](=O)[O-])cc1)N1CCCCC1
Q. O=C(NCCc1cccc(Cl)c1)[C@H](Cc1ccccc1)C[C@H](O)CNS(=O)(=O)c1ccc([N+](=O)[O-])cc1
Select one: P or Q . Criterion: greater recorded inhibition. // output: label of the selected item
P
